Test system: IGROV1 ovarian
Assay: NCI tumour cell line growth inhibition, 48 h; in the data active means GI50 below about 0.43 µM; inactive means the rest
Mark one answer only. Choices: active, inactive

// known answers, use as guide
O=C1C2CC3C(CC2C(=O)[N]1[Sn]([c]1ccccc1)([c]1ccccc1)[c]1ccccc1)C1(Cl)C(Cl)=C(Cl)C3(Cl)C1(Cl)Cl (stereo not drawn)    active
CCC[CH2][Sn]1([CH2]CCC)[O]C(c2ccccn2)S(=O)(=O)[O]1 (stereo not drawn)    inactive
CC[O-].CC[O-].[O-]c1ccccc1C=Nc1ccccc1.[O-]c1ccccc1C=Nc1ccccc1.[Ti+4]    inactive
Cc1cc(NC(=O)c2ccc(NS(=O)(=O)CCO)cc2N2CCC3(CC2)CC3)nc(N2CCC(F)(F)CC2)n1    inactive
COc1ccc(-c2coc3ncnc(N)c23)cc1    inactive
CN1CCN(C(=O)c2ccc(NC(=O)Nc3ccc(N(C)c4ccnc(Nc5ccc(CS(C)(=O)=O)cc5)n4)cc3)cc2)CC1    inactive
CCOC(=O)[C@H](CSSc1ncnc2cc[nH]c12)NC(=O)[C@@H](C)c1ccc2cc(OC)ccc2c1    inactive

Data request: I would be grateful if you could indicate the recorded call for COc1ccc(C(=S)c2cc(OC)c(OC)c(OC)c2)cc1OC(=O)CCl .
Data returned: active
